IC50 values for the compounds below.
target: other members of the PDE family (Homo sapiens, UniProt O76083); assay: In vitro PDE selectivity assay (SPA), other members of the PDE family (protocols in Table A); assay type: biochemical; settings: hPDE9A; read-out: PDE 9A (expressed as pIC50) (converted)
Sequence (O76083 whole entry): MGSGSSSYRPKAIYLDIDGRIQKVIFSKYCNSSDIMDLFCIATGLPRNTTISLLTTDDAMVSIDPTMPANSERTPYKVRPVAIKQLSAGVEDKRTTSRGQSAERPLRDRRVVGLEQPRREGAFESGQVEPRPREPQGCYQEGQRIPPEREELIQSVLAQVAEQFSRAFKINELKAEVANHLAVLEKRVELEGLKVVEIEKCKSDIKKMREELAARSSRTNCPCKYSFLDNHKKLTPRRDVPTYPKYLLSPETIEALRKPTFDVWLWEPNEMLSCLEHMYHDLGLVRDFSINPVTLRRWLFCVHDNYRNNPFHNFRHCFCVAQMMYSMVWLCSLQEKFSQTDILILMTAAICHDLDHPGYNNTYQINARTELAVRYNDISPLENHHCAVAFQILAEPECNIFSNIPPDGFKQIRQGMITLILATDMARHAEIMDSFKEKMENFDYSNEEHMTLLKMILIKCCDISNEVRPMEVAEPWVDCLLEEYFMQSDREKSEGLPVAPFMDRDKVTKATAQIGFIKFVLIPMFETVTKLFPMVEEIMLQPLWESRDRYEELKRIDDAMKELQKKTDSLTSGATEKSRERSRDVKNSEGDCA
VALUE_KIND: IC50

1) COCCn1cc(-c2c(C)nc3c(N4CCOCC4)cc(C4CC4)nn23)cn1    > 10 µM
2) Cc1nc2c(N3CCOCC3)ccnn2c1-c1cnn(CC2CC2(F)F)c1 (stereo not drawn)    > 10 µM
3) COC(C)(C)Cc1ccc(-c2c(C)nc3c(N4CCOCC4)ccnn23)cn1    > 10 µM
4) CCc1ccc(-c2c(C)nc3c(N4CCOCC4)ccnn23)cn1    > 100 µM
5) COCCn1cc(-c2c(C)nc3c(-c4ccncc4)cc(Cl)nn23)cn1    > 10 µM
6) COCCn1cc(-c2c(C)nc3c(N4CCOCC4)cc(C)nn23)cn1    > 10 µM
7) CC(C)Cn1cc(-c2c(C3CC3)nc3c(-c4ccncc4)ccnn23)cn1    > 10 µM
8) Cc1nc2c(N3CCOCC3)ccnn2c1-c1ccnc(N2CCOCC2)c1    > 10 µM
9) Cc1nc2c(-c3ccncc3)ccnn2c1-c1cnn(CC(F)(F)F)c1    > 10 µM
10) COCCn1cc(-c2c(C3CC3)nc3c(-c4ccncc4)ccnn23)cn1    > 10 µM
11) COC(C)(C)COc1ccc(-c2c(C)nc3c(N4CCOCC4)ccnn23)cn1    > 10 µM
12) COCCn1cc(-c2c(C)nc3c(-c4ccncc4)cc(C)nn23)cn1    > 10 µM
13) COC(C)(C)Cn1cc(-c2c(C3CC3)nc3c(-c4ccncc4)ccnn23)cn1    > 10 µM
14) COCCc1ccc(-c2c(C)nc3c(N4CCOCC4)ccnn23)cn1    > 100 µM
15) c1cc(-c2ccnn3c(-c4ccc(N5CCOCC5)nc4)cnc23)ccn1    > 10 µM
16) Cc1nc2c(N3CCOCC3)ccnn2c1-c1cnn(CC(C)C)c1    > 10 µM
17) COC(C)(C)Cn1cc(-c2c(C)nc3c(N4CCOCC4)ccnn23)cn1    > 100 µM
18) COCCOc1ccc(-c2c(C)nc3c(-c4ccncc4)ccnn23)cn1    > 50.1 µM

meta.source: patent US20120220581A1
